# System: Escherichia coli TOP10
# Method Description: shrunken log2 fold change of peptide-encoding DNA abundance (4.5 h post-induction vs induction); higher = less antimicrobial activity (less host growth inhibition)
# Recorded Conditions: time post-induction: 4.5 h; library: site-saturation at positions 5, 18, 19, 20
Measurement Kind: shrunken log2 fold change
Could you respond with only the numeric value?

Example entries begin here.
Macromolecule Sequence | Test Target | shrunken log2 fold change
RRIRWRPPRLPRPRPRPACPPRP | Escherichia coli TOP10 | 0.105
RRIRDRPPRLPRPRPRPKTEPRP | Escherichia coli TOP10 | -0.0167
RRIRHRPPRLPRPRPRPTCKPRP | Escherichia coli TOP10 | -0.015

Query string: Specify shrunken log2 fold change for `RRIRMRPPRLPRPRPRPDKLPRP` and stop.
Result string: 0.282

Query string: Provide measured shrunken log2 fold change value, entry: `RRIRFRPPRLPRPRPRPSQTPRP`
Result string: -0.304

Query string: Return value of shrunken log2 fold change for input `RRIRARPPRLPRPRPRPQSPPRP` , no commentary.
Result string: -0.0671

Query string: Read off the recorded shrunken log2 fold change for `RRIRTRPPRLPRPRPRPVAFPRP`
Result string: -0.225

Query string: Quick one: give measured shrunken log2 fold change for `RRIRARPPRLPRPRPRPRNQPRP`
Result string: -0.012

###

# Test system: Escherichia coli TOP10
# Method Description: shrunken log2 fold change of peptide-encoding DNA abundance (4.5 h post-induction vs induction); higher = less antimicrobial activity (less host growth inhibition)
# Recorded Conditions: time post-induction: 4.5 h; library: site-saturation at positions 5, 18, 19, 20
Measurement Kind: shrunken log2 fold change
Returns: the value as a bare number; no unit string appended.

Query string: Answer with the recorded shrunken log2 fold change for the sequence listed here: `RRIRGRPPRLPRPRPRPKHQPRP`
Result string: 0.441

Query string: Consider the sequence `RRIRCRPPRLPRPRPRPCFYPRP` . State its measured shrunken log2 fold change.
Result string: -0.675

###

Each entry below carries its reported shrunken log2 fold change.
# Tested on: Escherichia coli TOP10
# Method Description: shrunken log2 fold change of peptide-encoding DNA abundance (4.5 h post-induction vs induction); higher = less antimicrobial activity (less host growth inhibition)
# Recorded Conditions: time post-induction: 4.5 h; library: site-saturation at positions 5, 18, 19, 20

Macromolecule Sequence | Test Target | Meas Value
RRIRCRPPRLPRPRPRPCTGPRP | Escherichia coli TOP10 | -0.307
RRIRERPPRLPRPRPRPTLNPRP | Escherichia coli TOP10 | -0.152

Query string: Look up Escherichia coli TOP10 data: shrunken log2 fold change of `RRIRFRPPRLPRPRPRPAFMPRP` , then report it.
Result string: -0.164

Query string: Give Escherichia coli TOP10 shrunken log2 fold change for the following sequence: `RRIRGRPPRLPRPRPRPFSMPRP`
Result string: 0.169

Query string: Consider the sequence `RRIRARPPRLPRPRPRPRNKPRP` tested on Escherichia coli TOP10; state its shrunken log2 fold change.
Result string: 0.271

Query string: Return reported shrunken log2 fold change for target or system Escherichia coli TOP10, item `RRIRQRPPRLPRPRPRPTNRPRP` .
Result string: 0.0327

Query string: Tell me its shrunken log2 fold change on Escherichia coli TOP10: `RRIRYRPPRLPRPRPRPAMPPRP`
Result string: -0.549

Query string: Give shrunken log2 fold change for this entry on Escherichia coli TOP10: `RRIRDRPPRLPRPRPRPGNTPRP`
Result string: -0.165

###

shrunken log2 fold change values, listed per item
# Test system: Escherichia coli TOP10
# Method Description: shrunken log2 fold change of peptide-encoding DNA abundance (4.5 h post-induction vs induction); higher = less antimicrobial activity (less host growth inhibition)
# Recorded Conditions: time post-induction: 4.5 h; library: site-saturation at positions 5, 18, 19, 20
Lab note: write the figure by itself, no unit.

Macromolecule Sequence | shrunken log2 fold change
RRIRMRPPRLPRPRPRPFTMPRP | -0.55
RRIRLRPPRLPRPRPRPQVVPRP | -0.252
RRIRERPPRLPRPRPRPMGPPRP | -0.0976
RRIRPRPPRLPRPRPRPDVSPRP | 0.0525
RRIRYRPPRLPRPRPRPDSTPRP | -0.112

Query string: Fill in: shrunken log2 fold change on Escherichia coli TOP10, entry `RRIRQRPPRLPRPRPRPDAYPRP`
Result string: -0.228

Query string: Using Escherichia coli TOP10 as the test system, report measured shrunken log2 fold change of `RRIRDRPPRLPRPRPRPIVFPRP` .
Result string: -0.0706

Query string: Retrieve shrunken log2 fold change on Escherichia coli TOP10; query `RRIRPRPPRLPRPRPRPVYSPRP`
Result string: -0.297

Query string: Report measured shrunken log2 fold change on Escherichia coli TOP10; entry: `RRIRMRPPRLPRPRPRPMHWPRP`
Result string: -0.0799

Query string: Give shrunken log2 fold change; test system Escherichia coli TOP10; sequence `RRIRWRPPRLPRPRPRPAHLPRP`
Result string: 0.15

Query string: Answer briefly: shrunken log2 fold change recorded on Escherichia coli TOP10 for `RRIRHRPPRLPRPRPRPGKRPRP`
Result string: -0.0157

###

A collection of sequences and their measured shrunken log2 fold change
# Test system: Escherichia coli TOP10
# Method Description: shrunken log2 fold change of peptide-encoding DNA abundance (4.5 h post-induction vs induction); higher = less antimicrobial activity (less host growth inhibition)
# Recorded Conditions: time post-induction: 4.5 h; library: site-saturation at positions 5, 18, 19, 20
# output: bare number, no unit

Macromolecule Sequence | Test Target | shrunken log2 fold change
RRIRARPPRLPRPRPRPGFMPRP | Escherichia coli TOP10 | 0.14
RRIRFRPPRLPRPRPRPGESPRP | Escherichia coli TOP10 | -0.00672
RRIRPRPPRLPRPRPRPLESPRP | Escherichia coli TOP10 | -0.0234
RRIRVRPPRLPRPRPRPKSPPRP | Escherichia coli TOP10 | 0.272
RRIRRRPPRLPRPRPRPMVYPRP | Escherichia coli TOP10 | 0.119

Query string: Determine its reported shrunken log2 fold change: `RRIRQRPPRLPRPRPRPMLWPRP`
Result string: -0.00459

Query string: Specify shrunken log2 fold change for `RRIRVRPPRLPRPRPRPLACPRP` and stop.
Result string: 0.214

Query string: In one line, give reported shrunken log2 fold change of the entry `RRIRMRPPRLPRPRPRPERPPRP` .
Result string: 0.338

Query string: Answer with the recorded shrunken log2 fold change for the sequence listed here: `RRIRARPPRLPRPRPRPQSSPRP`
Result string: -0.0298

Query string: Give shrunken log2 fold change for the following sequence: `RRIRYRPPRLPRPRPRPGDCPRP`
Result string: -0.189

Query string: State, in one line, measured shrunken log2 fold change of `RRIRERPPRLPRPRPRPHNFPRP`
Result string: 0.0533

Query string: Kindly indicate its recorded shrunken log2 fold change. Item: `RRIRKRPPRLPRPRPRPDHMPRP`
Result string: 0.0864

Query string: Output measured shrunken log2 fold change for this item: `RRIRNRPPRLPRPRPRPMKQPRP`
Result string: 0.0238

Query string: State, in one line, measured shrunken log2 fold change of `RRIRIRPPRLPRPRPRPRTCPRP`
Result string: -0.282

Query string: Retrieve shrunken log2 fold change measured for `RRIRPRPPRLPRPRPRPRNDPRP` and print it.
Result string: -0.479

###

# Test system: Escherichia coli TOP10
# Method Description: shrunken log2 fold change of peptide-encoding DNA abundance (4.5 h post-induction vs induction); higher = less antimicrobial activity (less host growth inhibition)
# Recorded Conditions: time post-induction: 4.5 h; library: site-saturation at positions 5, 18, 19, 20
shrunken log2 fold change values by entry

Here is how some sequences turned out for shrunken log2 fold change.
Macromolecule Sequence | shrunken log2 fold change
RRIRSRPPRLPRPRPRPEWRPRP | 0.478
RRIRCRPPRLPRPRPRPHIDPRP | -0.42
RRIRQRPPRLPRPRPRPQLLPRP | -0.00691
RRIRDRPPRLPRPRPRPWNRPRP | -0.339
RRIRCRPPRLPRPRPRPNEWPRP | 0.0357
RRIRLRPPRLPRPRPRPDTFPRP | 0.0621

Query string: Look up and state reported shrunken log2 fold change for `RRIRERPPRLPRPRPRPTDIPRP`
Result string: -0.0479

Query string: Identify measured shrunken log2 fold change associated with `RRIRSRPPRLPRPRPRPPCSPRP`
Result string: 0.198

###

# System: Escherichia coli TOP10;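 also: peptides expressed intracellularly from a pBAD plasmid library in pooled LB shake-flask culture, induced with 0.3% L-arabinose, DNA abundance read by NGS, three biological replicates, DESeq2 with apeglm shrinkage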
# Method Description: shrunken log2 fold change of peptide-encoding DNA abundance (4.5 h post-induction vs induction); higher = less antimicrobial activity (less host growth inhibition)
# Recorded Conditions: time post-induction: 4.5 h; library: site-saturation at positions 5, 18, 19, 20
Measurement Kind: shrunken log2 fold change
// return a plain number; no unit text

Macromolecule Sequence | shrunken log2 fold change
RRIRHRPPRLPRPRPRPAMKPRP | 0.0279
RRIRNRPPRLPRPRPRPLSKPRP | -0.176
RRIRCRPPRLPRPRPRPGVQPRP | -0.419
RRIRTRPPRLPRPRPRPNAYPRP | -0.195
RRIRKRPPRLPRPRPRPFWWPRP | 0.592
RRIRRRPPRLPRPRPRPLMEPRP | -0.0263
RRIRQRPPRLPRPRPRPFNIPRP | 0.0348
RRIRKRPPRLPRPRPRPNKQPRP | -0.0316
RRIRWRPPRLPRPRPRPWCQPRP | 0.121
RRIRNRPPRLPRPRPRPGWLPRP | 0.174

Query string: Report the value of shrunken log2 fold change obtained on Escherichia coli TOP10 for `RRIRGRPPRLPRPRPRPDLDPRP` .
Result string: 1.21

Taken from the supplement of paper PMC9112550.
